- Read-out: Human Leukocyte Antigen - DR isotype (HLADR), HLA-DRA (gene 3122)
- PROCEDURE DETAILS: BSK_BE3C_HLADR: BioMAP Diversity Plus: BE3C Assay for Human Leukocyte Antigen - DR isotype (HLADR) Biomarker Activity (AID 2283032)
- PROTOCOL CONDITIONS: primary human bronchial epithelial cells; actives raise or lower the signal
The source made the active and inactive calls. The calls were made as follows: active = hit-call score of the fitted dose curve at least 0.9, where 1 is the maximum; inactive = score below 0.9.
Hello, when you answer, please use one of the following outcomes: Y = active, N = inactive

As a guide, the following entries are already answered.
| SMILES TEXT | GROUP LABEL |
| --- | --- |
| CC(C)(C)C(=O)CCl | Y |
| O=c1[nH]c(Cl)c(Cl)cc1Cl | N |
| Nc1ccc(-c2ccc(N)c(N)c2)cc1N | N |
| [Cd+2].[Cl-].[Cl-] | Y |

Please turn your attention to the following entry.
# lookup: test call for `O=[N+]([O-])C=Cc1ccccc1`
Y
